Reference for the values: patent US9309242B2

target: FGFR1 (h) (Homo sapiens, UniProt P11362); assay: FGFR1 (enzymatic assay), TR-FRET; format: biochemical; details: average values if tested multiple times, read-out: FGFR 1 pIC50 (converted)
Sequence (P11362 22-822): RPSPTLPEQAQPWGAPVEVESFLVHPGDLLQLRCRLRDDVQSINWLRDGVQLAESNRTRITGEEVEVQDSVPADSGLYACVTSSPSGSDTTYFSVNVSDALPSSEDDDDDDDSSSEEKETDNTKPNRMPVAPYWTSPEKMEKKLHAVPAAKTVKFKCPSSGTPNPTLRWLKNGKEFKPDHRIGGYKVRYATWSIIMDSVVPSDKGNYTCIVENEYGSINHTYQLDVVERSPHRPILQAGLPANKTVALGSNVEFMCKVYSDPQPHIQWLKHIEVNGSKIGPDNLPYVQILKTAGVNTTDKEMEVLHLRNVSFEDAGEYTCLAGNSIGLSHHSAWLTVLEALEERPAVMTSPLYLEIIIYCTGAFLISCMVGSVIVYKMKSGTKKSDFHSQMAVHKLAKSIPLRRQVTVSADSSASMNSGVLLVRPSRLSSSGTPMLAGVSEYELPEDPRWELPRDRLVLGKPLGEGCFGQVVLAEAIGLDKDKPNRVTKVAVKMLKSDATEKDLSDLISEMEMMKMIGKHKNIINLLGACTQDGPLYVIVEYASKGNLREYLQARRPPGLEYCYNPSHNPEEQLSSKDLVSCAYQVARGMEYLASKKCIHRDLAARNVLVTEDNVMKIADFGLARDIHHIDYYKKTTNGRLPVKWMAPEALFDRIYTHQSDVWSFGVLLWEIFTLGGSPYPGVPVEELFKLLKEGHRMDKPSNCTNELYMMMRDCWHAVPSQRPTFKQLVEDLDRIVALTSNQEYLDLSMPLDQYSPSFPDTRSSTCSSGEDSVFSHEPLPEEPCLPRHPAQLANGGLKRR
Where a name gives a salt, the structure may show the parent alone.
Measured IC50 by item
Endpoint Name: IC50 (nM)

INSERT INTO measurements (molecule, endpoint_name, measured_result) VALUES
  ('COc1ccc(F)c(N(Cc2ncc[nH]2)c2ccc3ncc(-c4cnn(C)c4)nc3n2)c1Cl [Compound 73]', 'IC50', 2.4),
  ('COCC(O)CN(c1cc(OC)cc(OC)c1)c1ccc2ncc(-c3cnn(C)c3)nc2n1 (stereo not drawn) [Compound 7]', 'IC50', 3.16),
  ('COc1cc(OC)c(F)c(N(CCN)c2ccc3ncc(-c4cnn(C)c4)nc3n2)c1F [Compound 67]', 'IC50', 0.813),
  ('COc1cc(OC)c(F)c(N(Cc2ncc[nH]2)c2ccc3ncc(-c4cnn(C)c4)nc3n2)c1 [23-hydrochloric acid salt]', 'IC50', 0.437),
  ('COc1cc(OC)c(F)c(N(CCCN2CCCC2=O)c2ccc3ncc(-c4cnn(C)c4)nc3n2)c1F [Compound 56]', 'IC50', 0.891),
  ('COc1cc(OC)cc(N(CC#Cc2ncccc2OC)c2ccc3ncc(-c4cnn(C)c4)nc3n2)c1 [Compound 26]', 'IC50', 50.1),
  ('CNCCN(c1ccc2ncc(-c3cnn(C)c3)nc2n1)c1c(F)ccc(OC)c1Cl [Compound 69]', 'IC50', 3.02),
  ('COc1cc(OC)c(F)c(N(CC(O)COC(C)C)c2ccc3ncc(-c4cnn(C)c4)nc3n2)c1 (single isomer, unassigned) [Compound 75]', 'IC50', 2.14),
  ('COc1cc(OC)c(Cl)c(N(C[C@H]2CCC(=O)N2)c2ccc3ncc(-c4cnn(C)c4)nc3n2)c1Cl [Compound 97]', 'IC50', 5.25),
  ('COc1cc(OC)c(F)c(N(Cc2nc3c([nH]2)CCNC3)c2ccc3ncc(-c4cnn(C)c4)nc3n2)c1 [Compound 104]', 'IC50', 2.57),
  ('COc1cc(OC)cc(N(Cc2ncc[nH]2)c2ccc3ncc(-c4cnn(C)c4)nc3n2)c1 [24-fumarate salt]', 'IC50', 0.631),
  ('COc1cc(OC)c(F)c(N(Cc2cc[nH]n2)c2ccc3ncc(-c4cnn(C)c4)nc3n2)c1 [Compound 118]', 'IC50', 0.759),
  ('COc1cc(OC)c(F)c(N(CC2CCC(=O)N2)c2ccc3ncc(-c4cnn(C)c4)nc3n2)c1 (stereo not drawn) [Compound 46]', 'IC50', 1.82),
  ('COc1cc(OC)c(F)c(N(CC2CCC(=O)N2)c2ccc3ncc(-c4cnn(C)c4)nc3n2)c1F (stereo not drawn) [Compound 48]', 'IC50', 1.26),
  ('COc1cc(OC)c(F)c(N(CC(O)COC(C)C)c2ccc3ncc(-c4cnn(C)c4)nc3n2)c1F (stereo not drawn) [Compound 62]', 'IC50', 4.07);
